B1: TPR 5TU (parent)
chain: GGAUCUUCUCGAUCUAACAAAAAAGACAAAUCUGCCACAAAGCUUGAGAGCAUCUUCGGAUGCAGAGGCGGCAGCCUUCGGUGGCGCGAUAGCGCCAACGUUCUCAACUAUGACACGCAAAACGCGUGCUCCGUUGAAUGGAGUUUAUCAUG

variants of: B1; test: polymerase ribozyme fitness, log enrichment relative to wild type (log ratio); higher = more active; in vitro selection for triplet polymerase activity
Variants at the floor of the assay were thinned out.
MEASUREMENT LABEL: polymerase ribozyme fitness (log ratio)

Some entries whose results are on file:
CHANGES: A21G C93A C103U
RESULT: -1.75

CHANGES: A20C C57U G59C G62C G124A
RESULT: -0.9

CHANGES: A39C G80U C114U
RESULT: ≤ -4.2

CHANGES: A52U G68A U82G G133U A137C A142C
RESULT: ≤ -4.2

CHANGES: A23C U56A G86U A115G
RESULT: ≤ -4.2

Req: Give the measured polymerase ribozyme fitness (log ratio) of C35U C85G C132U .
Resp: -3.12

Req: Give the measured polymerase ribozyme fitness (log ratio) of A52G A60G C85A C95G A97G U102A C125A .
Resp: ≤ -4.2

Req: Give the measured polymerase ribozyme fitness (log ratio) of G50C A52C U77C C79A U101G A115U .
Resp: ≤ -4.2

Req: Give the measured polymerase ribozyme fitness (log ratio) of `U7C` .
Resp: -1.19

Req: Give the measured polymerase ribozyme fitness (log ratio) of C10U U78A G86A A107G G124A G140A G141C .
Resp: ≤ -4.2

Req: Give the measured polymerase ribozyme fitness (log ratio) of A23U C57A G92C C149G .
Resp: ≤ -4.2
